system: Hek293T; test: Primary qHTS to identify gynecologic anti-cancer compounds using libraries of approved drugs and bioactive compounds (AID 1345084); settings: Gynecologic cancer cell panel viability, ATPlite luminescence, 48 h, control line for the selectivity index; series mostly up to 57.5 µM; also: nearly all actives have a fitted effect of over 55% in size
Records with an inconclusive call do not appear. Calls of active or inactive are those of the source. Calls follow the shape of the dose curve; as a rule, active = well fitted cell-killing curve with a large enough effect; inconclusive = small, poorly fitted or top-dose-only effect, or effect the other way; inactive = flat fitted curve, though single readings scatter.
One label from this list, please: y (active), n (inactive)

                                   compound  class_assignment
0  Clc1cccc(-n2nnnc2NCc2ccccc2Oc2ccccn2)c1Cl                 n

Request: Per the assay record, what outcome was assigned to "Cc1nc(Nc2n[nH]c3c2CN(C(=O)N[C@H](CN(C)C)c2ccccc2)C3(C)C)c2sccc2n1" ?
Result: y

Request: What did this assay record as the result for "Cc1nc2ccc(CN(C)c3ccc(C(=O)N[C@@H](CCC(=O)O)C(=O)O)s3)cc2c(=O)[nH]1" ?
Result: n

Request: Would you mind telling me which call this test gave "Cc1ccc2nc(NC(=O)CSc3nc4c(c(=O)n3-c3ccccc3)SCC4)sc2c1" ?
Result: n

Request: Recorded test call requested for CC1COC2(CCN(c3nc(=O)c4cc(C(F)(F)F)cc([N+](=O)[O-])c4s3)CC2)O1 (stereo not drawn)
Result: n

Request: // param item: "CCc1c2c(nc3ccc(O)cc13)-c1cc3c(c(=O)n1C2)COC(=O)[C@]3(O)CC" ; yields the recorded call
Result: y

Request: # lookup: test call for "CN1CCN(Cc2ccc(NC(=O)Nc3ccc(Oc4cc(NC(=O)C5CC5)ncn4)cc3)cc2C(F)(F)F)CC1"
Result: y

Request: Give the logged outcome of this assay for the following compound: CCOc1ccccc1OCCNC(C)Cc1ccc(OC)c(S(N)(=O)=O)c1 (stereo not drawn)
Result: n

----------
test: Quantitative High-Throughput drug screen in 47 multiple myeloma cell lines against the NCATS MIPE library collection: Karpas620_DSMZ cell viability assay (AID 1918959); conditions: Karpas620 myeloma viability, CellTiter-Glo ATP luminescence, 48 h; series mostly up to 45.8 µM; also: nearly all actives have a fitted effect of over 30% in size; also: potency is read from the fitted curve at half-maximal effect
Inconclusive results are not listed. Calls of active or inactive are those of the source. The call rests on the fitted dose curve; in most records, active means well fitted cell-killing curve with a large enough effect; inconclusive means small, poorly fitted or top-dose-only effect, or effect the other way; inactive means no such curve, though single readings can be large or run the other way.
observation.type: Potency

Reference set (4 entries):
>>> print(df.to_string())
                                smiles_repr   endpoint_result
0       Clc1ccc2ncc(-c3cccc(NC4CNC4)n3)n2c1          inactive
1  CCCNC(=O)Nc1ccc(Oc2ncnc3cc(OC)c(OC)cc23)cc1Cl          inactive
2  Cc1ccc(C(N)=O)cc1Nc1nccc(-c2cn(C(C)C)c3cnccc23)n1  6.62 µM (active)
3  CS(=O)(=O)c1ccc(-c2cnc(N)c(C(=O)Nc3ccccc3)n2)cc1          inactive

Here's the next entry for you.
Request: Potency lookup needed for "Cn1cncc1[C@@](N)(c1ccc(Cl)cc1)c1ccc2c(c1)c(-c1cccc(Cl)c1)cc(=O)n2C" , thanks.
Result: 5.9 µM (active)

----------
test: Quantitative High-Throughput drug screen in 47 multiple myeloma cell lines against the NCATS MIPE library collection: Delta47_JCRB cell viability assay (AID 1918925; also: nearly all actives have a fitted effect of over 45% in size); settings: Delta47 myeloma viability, CellTiter-Glo ATP, 48 h; series mostly up to 45.8 µM
Inconclusive results are not listed. Calls of active or inactive are those of the source. Calls come from the whole dose curve; as a rule, active = well fitted cell-killing curve with a large enough effect; inconclusive = small, poorly fitted or top-dose-only effect, or effect the other way; inactive = no such curve, though single readings can be large or run the other way.
Please answer using one outcome listed in YES (active), NO (inactive)

Illustrative cases are given below, each with its answer.
>>> print(df.to_string())
                                smiles_repr  class_assignment
0  Nc1ccccc1NC(=O)c1ccc(CNC(=O)OCc2cccnc2)cc1               YES
1  CC=CC1=C(C(=O)O)N2C(=O)[C@H](NC(=O)[C@H](N)c3ccc(O)cc3)[C@@H]2SC1                NO
2  Cc1c(Cn2c(C)nc3c(C(=O)O)cc(N4CCOCC4)cc32)cccc1C(F)(F)F               YES
3  Cc1cn2cc(C(=O)N(C)CCO)cc(N[C@@H]3CCOc4cccc(C)c43)c2n1                NO
4  Nc1ccccc1NC(=O)c1ccc(CNc2nccc(-c3cccnc3)n2)cc1               YES
5  COc1cccc2c(NCc3ccccc3)nc(-n3c(N)nc4ccccc43)nc12               YES

Request: Please let me know the test result on file for "Cc1ccc(NC(=O)C2(c3ccc4c(c3)OC(F)(F)O4)CC2)nc1-c1cccc(C(=O)O)c1" .
Result: YES

Request: In this assay, the call recorded for "C[C@H]1C[C@@H]2[C@@H]([C@@H](O)C[C@@]3(C)[C@H]2CC[C@]3(O)C(=O)CO)[C@@]2(C)C=CC(=O)C=C12" was what?
Result: NO

Request: Field: outcome | Entry: "COc1cccc2nc(-c3cccs3)nc(NN3C(=O)C=C(C)C3=O)c12"
Result: YES

----------
test: qHTS assay to identify inhibitors of the type 1 interferon - major histocompatibility complex class I in skeletal muscle: Counter screen cell viability and HiBit confirmation (AID 1347412); conditions: iHSKM muscle cells + IFN-b, HiBiT or CellTiter-Glo, 24 h; Viability; at 45.9 µM (top of the series); also: % is scaled to controls: 0 for no effect and ±100 for the full control effect; nearly all actives have a fitted effect of over 60% in size
Inconclusive results are not listed.
Here the recorded activity change, negative = inhibition is given for each entry.
Hi! Could you send only the number? It should be in %, unit omitted.

Worked cases, activity change, negative = inhibition given:
>>> df
                                smiles_repr                        observation_type  endpoint_result
0  CC[C@H](CO)Nc1nc(NCc2ccccc2)c2ncn(C(C)C)c2n1  activity change, negative = inhibition            -8.22
1  c1ccc2c(CCNc3ccc(Nc4ccncc4)cc3)c[nH]c2c1  activity change, negative = inhibition            -28.3
2  Cc1cc(Nc2cc(NC(=O)c3c(Cl)cccc3Cl)ccn2)nc(N)n1  activity change, negative = inhibition             21.4
3  CN(c1ncccc1CNc1nc(Nc2ccc3c(c2)CC(=O)N3)ncc1C(F)(F)F)S(C)(=O)=O  activity change, negative = inhibition             13.6

// next item, activity change, negative = inhibition requested
Request: What value of measured activity change, negative = inhibition is listed for "CC(C)CC(=O)Nc1n[nH]c2c1CN(C(=O)C1CCN(C)CC1)C2(C)C" ?
Result: 10.8

----------
assay: qHTS of pediatric cancer cell lines to identify multiple opportunities for drug repurposing: Primary screen for NB-EBc1 cells (AID 1347095); conditions: NB-EBc1 neuroblastoma viability, CellTiter-Glo luminescence, 48 h; series mostly up to 46 µM
Records with an inconclusive call do not appear. Calls of active or inactive are those of the source. Calls follow the shape of the dose curve; as a rule, active = well fitted cell-killing curve with a large enough effect; inconclusive = small, poorly fitted or top-dose-only effect; inactive = no such curve, though single readings can be large or run the other way.
Hi there, use one of these labels in your reply, thanks! active, inactive

Please review the following examples before continuing.
>>> df
                                smiles_repr  class_assignment
0  CC(C)(O)c1cc2nc(-c3cnc(N)nc3)nc(N3CCOCC3)c2s1            active
1  COc1c(N2C[C@@H]3CCCN[C@H]3C2)c(F)cc2c(=O)c(C(=O)O)cn(C3CC3)c12          inactive
2  Cn1cncc1[C@@](N)(c1ccc(Cl)cc1)c1ccc2c(c1)c(-c1cccc(Cl)c1)cc(=O)n2C            active
3   CC(C)=CCCC(C)=CCCC(C)=CCSc1ccccc1C(=O)O            active

Proceed to the following item.
Request: Field: outcome | Entry: "Nc1nc(Nc2ccc(S(N)(=O)=O)cc2)nn1C(=O)c1c(F)cccc1F"
Result: active

----------
assay: Quantitative High-Throughput drug screen in 47 multiple myeloma cell lines against the NCATS MIPE library collection: PE2_PLB cell viability assay (AID 1919869); conditions: PE2_PLB myeloma cells viability, ATP luminescence, 48 h; series mostly up to 45.8 µM; also: nearly all actives have a fitted effect of over 35% in size
Results filed as inconclusive are left out. Active and inactive are the calls of the source. The call rests on the fitted dose curve; in most records, active means well fitted cell-killing curve with a large enough effect; inconclusive means small, poorly fitted or top-dose-only effect, or effect the other way; inactive means no such curve, though single readings can be large or run the other way.
Your response should consist of one outcome taken from active, inactive

Request: Identify the outcome logged in this assay for the compound shown: CCOc1ccccc1OCCNC(C)Cc1ccc(OC)c(S(N)(=O)=O)c1 (stereo not given)
Result: inactive

Request: In this assay, the call recorded for "COc1cc2c(cc1-c1c(C)noc1C)ncc1[nH]c(=O)n([C@H](C)c3ccccn3)c12" was what?
Result: active

Request: Lab log entry: "CC(C)(C)c1cc(C(C)(C)C)c(NC(=O)c2c[nH]c3ccccc3c2=O)cc1O" — outcome as called in the assay?
Result: inactive

Request: I would be grateful if you could indicate the recorded call for COc1cc(-c2nn(C3CCC(N4CCN(C(C)=O)CC4)CC3)c3ncnc(N)c23)ccc1NC(=O)c1cc2ccccc2n1C (stereo not given) .
Result: active

Request: Tell me the recorded outcome of this test for CC(O)C1C(=O)N2C(C(=O)O)=C(SC3CNC(C(=O)N(C)C)C3)C(C)C12 (stereo not given) .
Result: inactive
